Here, each record is paired with measured Hemolysis at 100 μM data.
System: human red blood cells (hRBC)
Assay overview: Hemolysis
Assay type: cell-based
Bridge positions count the residues as written; N and C are the ends. Square brackets hold non-standard residues; d marks the D form. Peptide text beside a SMILES is read from it. 2Nal = N[C@@H](Cc1ccc2ccccc2c1)C(=O)O; 4Pal = N[C@@H](Cc1ccncc1)C(=O)O; Cit = NC(=O)NCCC[C@H](N)C(=O)O
Your answer is read as %, so omit the unit and give the number.

Worked examples follow.
CC(C)[C@@H]1NC(=O)[C@H](CCCNC(=N)N)NC(=O)[C@H](Cc2ccc(O)cc2)NC(=O)[C@@H]2CCCN2C(=O)[C@H]2CCCN2C(=O)[C@H](CCCCN)NC(=O)[C@H](CCC(N)=O)NC(=O)[C@H](Cc2ccc(O)cc2)NC(=O)[C@@H]2CSSC[C@H](NC1=O)C(=O)N[C@@H](CCCNC(=N)N)C(=O)NCC(=O)N1CCC[C@@H]1C(=O)N[C@@H](CCCNC(=N)N)C(=O)N[C@@H](CCCNC(=N)N)C(=O)N[C@@H](Cc1ccc3ccccc3c1)C(=O)N2 [Ex. 98] (cyclo(YRVCRG[dP]RR[2Nal]CYQK[dP]P); disulfide 4-11) ... 1
N=C(N)NCCC[C@@H]1NC(=O)[C@@H]2CSSC[C@H](NC(=O)[C@H](Cc3ccc4ccccc4c3)NC(=O)[C@H](CCCNC(=N)N)NC(=O)[C@H](CCCNC(=N)N)NC(=O)[C@H]3CCCN3C(=O)CNC1=O)C(=O)N[C@@H](Cc1ccc(O)cc1)C(=O)N[C@@H](CC(N)=O)C(=O)N[C@@H](CCCCN)C(=O)N1CCC[C@@H]1C(=O)N1CCC[C@H]1C(=O)N[C@@H](Cc1ccc(O)cc1)C(=O)N[C@@H](CCCNC(=N)N)C(=O)N[C@@H](CCCNC(N)=O)C(=O)N2 [Ex. 77] (cyclo(YR[Cit]CRG[dP]RR[2Nal]CYNK[dP]P); disulfide 4-11) ... 0.2
N=C(N)NCCC[C@@H]1NC(=O)[C@@H]2CSSC[C@H](NC(=O)[C@H](Cc3ccc4ccccc4c3)NC(=O)[C@H](CCCNC(=N)N)NC(=O)[C@H](CCCNC(=N)N)NC(=O)[C@H]3CCCN3C(=O)CNC1=O)C(=O)N[C@@H](Cc1ccc(O)cc1)C(=O)N[C@@H](CC(=O)O)C(=O)N[C@@H](CCCCN)C(=O)N1CCC[C@@H]1C(=O)N1CCC[C@H]1C(=O)N[C@@H](Cc1ccc(O)cc1)C(=O)N[C@@H](CCCNC(=N)N)C(=O)N[C@@H](CCCNC(N)=O)C(=O)N2 [Ex. 78] (cyclo(YR[Cit]CRG[dP]RR[2Nal]CYDK[dP]P); disulfide 4-11) ... 0.1

We next turn to a different compound, shown below.
Write down Hemolysis at 100 μM measured for item C[C@@H](O)[C@@H]1NC(=O)[C@H](CCCNC(=N)N)NC(=O)[C@H](Cc2ccc(O)cc2)NC(=O)[C@@H]2CCCN2C(=O)[C@H]2CCCN2C(=O)[C@H](CCCCN)NC(=O)[C@H](CCC(N)=O)NC(=O)[C@H](Cc2ccc(O)cc2)NC(=O)[C@@H]2CSSC[C@H](NC1=O)C(=O)N[C@@H](CCCNC(=N)N)C(=O)NCC(=O)N1CCC[C@@H]1C(=O)N[C@@H](Cc1ccncc1)C(=O)N[C@@H](CCCNC(=N)N)C(=O)N[C@@H](Cc1c[nH]c3ccccc13)C(=O)N2 [Ex. 118] (cyclo(YRTCRG[dP][4Pal]RWCYQK[dP]P); disulfide 4-11)
0
